Overview of reported inhibition across a group of compounds:
target: Mitogen-activated protein kinase 11 (Homo sapiens); conditions: at 0.1 µM;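 further: reported values are averaged (mean) percent inhibition of p38beta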
A number alone suffices; assume %.

| SMILES_INPUT | inhibition, % |
| --- | --- |
| COc1cc(N2CCN(C(C)C)CC2)ccc1Nc1nc(Nc2cccc(F)c2C(=O)O)c2cc[nH]c2n1 | 3.15 |
| CCS(=O)(=O)c1ccc(OC)c(Nc2ncc(-c3cccc(F)c3)o2)c1 | 4.8 |
| Cc1cc(O)cc(C)c1/C=C/c1cncc(C(=O)OC(C)(C)C)c1 | 1.86 |

Record summary for c1ccc(-c2n[nH]cc2-c2ccnc(-c3ccc(OCCn4ccnc4)cc3)c2)nc1 : reported inhibition = 1.39

Memo: CNC(=O)c1sc(-n2cnc3cc(OC)c(OC)cc32)cc1OCc1ccccc1C(F)(F)F , reported inhibition: 4.76

inhibition reported for this compound NS(=O)(=O)c1cccc(N/C=C2\C(=O)Nc3ccccc32)c1 : 6.33

Reported inhibition of Cc1ccc(-c2cc3c(NC(=O)C4CC4)ncnc3o2)cc1 : 1.17

###

test system: Tyrosine-protein kinase ABL1 (Homo sapiens), P00519 [M351T]; conditions: at 0.1 µM
RECORDED_ENDPOINT: inhibition (%)
API: value field is a number in %; no unit string.

| SMILES_INPUT | ASSAY_TARGET | UNIT_STRING | inhibition |
| --- | --- | --- | --- |
| Cc1nnc(-c2cccc(-c3ccc(C(=O)NCC4CC4)cc3)c2)o1 | Tyrosine-protein kinase ABL1 (Homo sapiens), P00519 [M351T] | % | 2.13 |
| COC(=O)Nc1nc2ccc(Oc3ccc(NC(=O)Nc4cc(C(F)(F)F)ccc4F)cc3)cc2s1 | Tyrosine-protein kinase ABL1 (Homo sapiens), P00519 [M351T] | % | 76.6 |

The reported value for CCS(=O)(=O)c1ccc(OC)c(Nc2ncc(-c3cccc(F)c3)o2)c1 in terms of inhibition is 38.6

Reported inhibition ( CS(=O)(=O)CCNCc1ccoc1-c1ccc2ncnc(Nc3ccc(OCc4ccccc4)cc3)c2c1 ) = 0.87

Given item O=C(O[C@H]1CN[C@H](C#Cc2cc3ncnc(Nc4ccc5c(ccn5Cc5cc(F)ccc5F)c4)c3s2)C1)N1CCOCC1 , the value recorded as its inhibition is 1.92

###

target: Tyrosine-protein kinase receptor TYRO3 (Homo sapiens) (UniProt Q06418); settings: at 1 µM
Sequence (Q06418 whole entry): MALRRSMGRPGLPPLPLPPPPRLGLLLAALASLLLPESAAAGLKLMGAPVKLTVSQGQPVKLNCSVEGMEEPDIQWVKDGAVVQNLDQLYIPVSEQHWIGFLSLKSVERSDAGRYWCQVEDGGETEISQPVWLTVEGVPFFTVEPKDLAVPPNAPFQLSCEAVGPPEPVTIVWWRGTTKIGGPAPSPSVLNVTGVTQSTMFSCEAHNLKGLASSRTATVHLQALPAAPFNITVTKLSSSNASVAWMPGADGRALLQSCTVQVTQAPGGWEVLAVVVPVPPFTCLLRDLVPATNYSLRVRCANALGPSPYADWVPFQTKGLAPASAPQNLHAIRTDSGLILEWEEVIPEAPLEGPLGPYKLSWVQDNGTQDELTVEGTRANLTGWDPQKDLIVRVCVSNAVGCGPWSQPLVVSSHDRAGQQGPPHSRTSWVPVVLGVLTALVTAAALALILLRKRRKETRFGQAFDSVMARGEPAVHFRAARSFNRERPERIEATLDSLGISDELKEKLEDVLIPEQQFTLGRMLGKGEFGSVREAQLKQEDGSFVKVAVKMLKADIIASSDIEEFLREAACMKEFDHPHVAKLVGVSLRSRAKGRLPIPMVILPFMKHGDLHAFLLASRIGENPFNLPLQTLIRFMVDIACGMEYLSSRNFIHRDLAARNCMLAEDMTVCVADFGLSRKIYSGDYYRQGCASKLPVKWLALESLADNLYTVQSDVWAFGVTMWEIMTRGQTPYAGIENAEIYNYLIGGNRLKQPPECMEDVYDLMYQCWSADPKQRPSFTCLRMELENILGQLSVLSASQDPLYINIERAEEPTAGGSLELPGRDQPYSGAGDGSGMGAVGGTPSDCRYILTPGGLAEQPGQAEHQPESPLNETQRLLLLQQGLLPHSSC
Description: GSK_PKIS: TYRO3 mean inhibition at 1 uM [Nanosyn]
Decision: inhibition compared against 3%; not below it gives TRUE, below it gives FALSE.

q: Dear colleague, could you confirm whether c1cnn2ncc(-c3ccnc(NCCCN4CCOCC4)n3)c2c1 has inhibition at or above 3%?
a: FALSE

q: Given the entry COc1cc(N2CCN(C(C)C)CC2)ccc1Nc1nc(Nc2cccc(F)c2C(=O)O)c2cc[nH]c2n1 , answer whether its inhibition meets or surpasses 3%.
a: TRUE

q: Quick check, inhibition >= 3%? CC1(C)CC(n2cnc(-c3ccc(F)cc3)c2-c2ccnc(N)n2)CC(C)(C)N1
a: TRUE

q: Confirm if inhibition reported for the compound NC(=O)c1ccc2c(-c3ccnc(NCCCO)n3)c(-c3ccc(F)cc3)nn2c1 is 3% or above.
a: TRUE

q: Check the entry CN(c1ccc(NC(=O)NCCN2CCOCC2)cc1)c1ccnc(Nc2ccc(CS(C)(=O)=O)cc2)n1 : does inhibition equal or exceed 3%?
a: TRUE

###

target: Protein-tyrosine kinase 2-beta (Homo sapiens) (UniProt Q14289); conditions: at 0.1 µM;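 further: reported as mean percent inhibition of PYK2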
Sequence (Q14289 whole entry, looked up): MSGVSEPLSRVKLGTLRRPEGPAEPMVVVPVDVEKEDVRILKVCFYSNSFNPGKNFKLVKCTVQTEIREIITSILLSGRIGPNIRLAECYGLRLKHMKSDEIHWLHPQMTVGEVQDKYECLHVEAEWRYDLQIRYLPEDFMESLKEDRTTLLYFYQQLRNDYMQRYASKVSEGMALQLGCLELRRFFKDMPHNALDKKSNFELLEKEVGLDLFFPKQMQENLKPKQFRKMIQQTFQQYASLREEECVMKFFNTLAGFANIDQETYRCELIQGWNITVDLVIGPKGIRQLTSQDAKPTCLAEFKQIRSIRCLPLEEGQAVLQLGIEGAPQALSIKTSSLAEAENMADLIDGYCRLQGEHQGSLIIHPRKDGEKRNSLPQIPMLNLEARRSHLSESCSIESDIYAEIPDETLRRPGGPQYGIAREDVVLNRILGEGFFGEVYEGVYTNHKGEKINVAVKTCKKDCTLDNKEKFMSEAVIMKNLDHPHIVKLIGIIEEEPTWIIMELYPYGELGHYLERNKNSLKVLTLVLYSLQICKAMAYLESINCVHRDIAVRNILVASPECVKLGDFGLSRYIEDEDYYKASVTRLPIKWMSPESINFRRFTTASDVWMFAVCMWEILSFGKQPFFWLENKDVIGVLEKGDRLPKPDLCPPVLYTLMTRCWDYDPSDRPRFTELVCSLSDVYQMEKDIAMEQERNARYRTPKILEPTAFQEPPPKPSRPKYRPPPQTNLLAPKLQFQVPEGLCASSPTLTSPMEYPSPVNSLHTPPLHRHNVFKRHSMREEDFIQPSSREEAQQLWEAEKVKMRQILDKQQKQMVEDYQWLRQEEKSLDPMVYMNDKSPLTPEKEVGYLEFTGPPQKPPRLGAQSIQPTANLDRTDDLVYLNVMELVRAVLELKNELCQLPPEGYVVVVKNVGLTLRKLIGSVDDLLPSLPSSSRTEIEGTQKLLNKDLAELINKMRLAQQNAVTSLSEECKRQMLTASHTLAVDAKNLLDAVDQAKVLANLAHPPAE
RECORDED_ENDPOINT: inhibition (%)
Just the number in %, nothing appended.

Notebook: Fc1ccc(Nc2nccc(-c3c(-c4ccc(C(F)(F)F)cc4)nn4ncccc34)n2)cc1F , inhibition read as 4.12

Documented inhibition of CS(=O)(=O)Nc1ccc(-c2cc(-c3ccccc3)cc(C(N)=O)c2N)cc1 : 3.11

// sample CS(=O)(=O)CCNCc1ccoc1-c1ccc2ncnc(Nc3ccc(OCc4ccccc4)cc3)c2c1 , its inhibition was 0.12

Entry CC1(C)CC(n2cnc(-c3ccc(F)cc3)c2-c2ccnc(N)n2)CC(C)(C)N1 ; inhibition = 4.26

The recorded inhibition for entry OCCCNc1nccc(-c2c(-c3ccc(F)cc3)nn3cc(C(F)(F)F)ccc23)n1 equals 3.13

Notebook: N#Cc1cccc(Nc2ncc(-c3ccccc3)o2)c1 , inhibition read as 1.87

Just so you know, measured inhibition for Cn1c(-c2nonc2N)nc2cnccc21 came out at 8.49

The compound listed as COc1cccc(Nc2nccc(-c3cnn4ncccc34)n2)c1 has a reported inhibition of 28.5

inhibition measured on CN(c1ccc(NC(=O)NCCN2CCOCC2)cc1)c1ccnc(Nc2ccc(CS(C)(=O)=O)cc2)n1 = 11.2

Record summary for COc1ccc(Nc2ncc(-c3ccccc3)o2)cc1OC : reported inhibition = -5.6

###

tested on: Tyrosine-protein kinase ABL1 (Homo sapiens), P00519 [M351T]; details: at 0.1 µM
RECORDED_ENDPOINT: inhibition (%)
Give the value in % but do not write % after it.

| MOLECULE | inhibition / % |
| --- | --- |
| Cc1ccc(-c2cc3c(NC(=O)C4CC4)ncnc3o2)cc1 | 3.97 |

Summary: CS(=O)(=O)CCNCc1ccc(-c2ccc3ncnc(Nc4ccc(OCc5ccccc5)cc4)c3c2)o1 , Tyrosine-protein kinase ABL1 (Homo sapiens), P00519 [M351T], inhibition = 2.42

Sample O=C1Nc2ccccc2/C1=C1\CCc2cc(O)ccc21 , system: Tyrosine-protein kinase ABL1 (Homo sapiens), P00519 [M351T]. Its inhibition is 4.89

Result for N#Cc1ccc2c(-c3ccnc(NC4CC4)n3)c(-c3ccc(F)cc3)nn2c1 , tested on Tyrosine-protein kinase ABL1 (Homo sapiens), P00519 [M351T], inhibition: -0.71

Lab note: molecule FC(F)(F)CNc1nccc(-c2cnn3ncccc23)n1 tested on Tyrosine-protein kinase ABL1 (Homo sapiens), P00519 [M351T]; recorded inhibition was 0.25

Field inhibition (Tyrosine-protein kinase ABL1 (Homo sapiens), P00519 [M351T]), entry NS(=O)(=O)c1ccc(N/N=C2\C(=O)Nc3cccc(CCc4ccncc4)c32)cc1 : 3.41

Field inhibition (Tyrosine-protein kinase ABL1 (Homo sapiens), P00519 [M351T]), entry COc1cc(N2CCN(C(C)C)CC2)ccc1Nc1nc(Nc2cccc3ncccc23)c2cc[nH]c2n1 : 2.31

###

target: Receptor-type tyrosine-protein kinase FLT3 (Homo sapiens) (UniProt P36888); conditions: at 0.1 µM;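 further: mean inhibition value from the GSK PKIS kinase screening set, with the assay run by Nanosyn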
Sequence (P36888 whole entry): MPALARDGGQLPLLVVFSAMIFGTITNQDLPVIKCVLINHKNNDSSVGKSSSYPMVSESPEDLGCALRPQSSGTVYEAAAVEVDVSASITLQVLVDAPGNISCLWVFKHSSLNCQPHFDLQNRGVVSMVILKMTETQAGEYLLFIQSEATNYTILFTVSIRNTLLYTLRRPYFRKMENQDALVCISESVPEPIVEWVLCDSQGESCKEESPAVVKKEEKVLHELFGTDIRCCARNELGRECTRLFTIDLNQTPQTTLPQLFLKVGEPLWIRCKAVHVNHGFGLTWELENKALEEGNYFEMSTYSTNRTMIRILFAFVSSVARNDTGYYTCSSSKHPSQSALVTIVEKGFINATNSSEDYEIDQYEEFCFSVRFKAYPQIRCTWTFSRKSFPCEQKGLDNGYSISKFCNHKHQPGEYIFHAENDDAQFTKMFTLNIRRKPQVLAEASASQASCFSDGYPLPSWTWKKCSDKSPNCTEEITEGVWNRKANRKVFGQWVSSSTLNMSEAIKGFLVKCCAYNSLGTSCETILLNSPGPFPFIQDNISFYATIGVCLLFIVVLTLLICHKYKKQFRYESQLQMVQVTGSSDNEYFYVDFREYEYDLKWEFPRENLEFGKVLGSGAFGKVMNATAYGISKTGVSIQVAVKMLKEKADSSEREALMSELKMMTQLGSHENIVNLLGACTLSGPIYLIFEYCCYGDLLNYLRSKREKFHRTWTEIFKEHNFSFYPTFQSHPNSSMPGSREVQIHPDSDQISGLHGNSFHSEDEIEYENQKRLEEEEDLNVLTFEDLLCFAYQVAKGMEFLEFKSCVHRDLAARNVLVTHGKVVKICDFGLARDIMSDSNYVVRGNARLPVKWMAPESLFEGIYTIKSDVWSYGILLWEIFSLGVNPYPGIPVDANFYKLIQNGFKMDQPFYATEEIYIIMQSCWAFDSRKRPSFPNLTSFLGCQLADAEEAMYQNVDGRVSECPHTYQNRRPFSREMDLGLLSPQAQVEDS
RECORDED_ENDPOINT: inhibition (%)
Provide the reading as a plain figure in %.

| COMPOUND | inhibition, % |
| --- | --- |
| CS(=O)(=O)Nc1ccc(-c2ccc3c(NC(=O)C4CC4)n[nH]c3c2)cc1 | -0.08 |
| CS(=O)(=O)CCNCc1ccoc1-c1ccc2ncnc(Nc3ccc(OCc4ccccc4)cc3)c2c1 | 1.82 |

Moving on to the next compound.
inhibition reading for c1ccc(-c2n[nH]cc2-c2ccnc(-c3ccc(OCCn4ccnc4)cc3)c2)nc1 : -0.04

###

target: Misshapen-like kinase 1 (Homo sapiens) (UniProt Q8N4C8); details: at 1 µM
Sequence (Q8N4C8 whole entry, looked up): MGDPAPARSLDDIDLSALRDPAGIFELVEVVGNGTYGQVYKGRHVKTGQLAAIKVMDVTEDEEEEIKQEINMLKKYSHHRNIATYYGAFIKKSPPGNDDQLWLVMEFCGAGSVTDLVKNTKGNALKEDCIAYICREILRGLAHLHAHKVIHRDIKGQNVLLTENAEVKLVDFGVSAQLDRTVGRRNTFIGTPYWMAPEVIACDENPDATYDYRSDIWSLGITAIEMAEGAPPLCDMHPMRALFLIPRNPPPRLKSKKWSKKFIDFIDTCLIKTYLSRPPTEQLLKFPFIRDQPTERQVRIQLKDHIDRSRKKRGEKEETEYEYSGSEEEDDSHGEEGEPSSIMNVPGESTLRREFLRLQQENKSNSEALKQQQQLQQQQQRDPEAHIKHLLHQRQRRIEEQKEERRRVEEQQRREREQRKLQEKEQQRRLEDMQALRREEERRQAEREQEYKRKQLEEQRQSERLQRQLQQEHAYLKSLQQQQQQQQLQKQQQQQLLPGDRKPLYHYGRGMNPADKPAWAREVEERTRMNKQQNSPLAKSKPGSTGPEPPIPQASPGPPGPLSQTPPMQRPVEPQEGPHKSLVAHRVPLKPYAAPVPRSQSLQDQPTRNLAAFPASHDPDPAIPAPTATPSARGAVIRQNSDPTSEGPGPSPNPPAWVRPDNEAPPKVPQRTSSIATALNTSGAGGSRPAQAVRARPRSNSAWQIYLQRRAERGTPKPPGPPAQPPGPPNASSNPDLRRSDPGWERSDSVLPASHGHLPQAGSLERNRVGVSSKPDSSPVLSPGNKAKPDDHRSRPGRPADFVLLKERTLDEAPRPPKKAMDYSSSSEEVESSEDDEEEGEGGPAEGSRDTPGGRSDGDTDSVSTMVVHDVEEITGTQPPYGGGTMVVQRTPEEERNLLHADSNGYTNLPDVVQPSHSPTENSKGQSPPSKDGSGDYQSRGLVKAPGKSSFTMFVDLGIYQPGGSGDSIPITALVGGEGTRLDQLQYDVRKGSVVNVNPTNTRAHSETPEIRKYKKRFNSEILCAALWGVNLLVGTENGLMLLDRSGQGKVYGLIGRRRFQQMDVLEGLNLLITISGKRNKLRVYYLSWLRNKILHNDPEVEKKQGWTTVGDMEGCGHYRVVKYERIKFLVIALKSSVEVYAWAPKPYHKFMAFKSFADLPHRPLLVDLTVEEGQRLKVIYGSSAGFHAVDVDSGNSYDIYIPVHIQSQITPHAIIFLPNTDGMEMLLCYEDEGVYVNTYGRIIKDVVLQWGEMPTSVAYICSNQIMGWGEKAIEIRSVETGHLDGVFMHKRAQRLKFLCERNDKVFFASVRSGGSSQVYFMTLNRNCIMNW
Description: GSK_PKIS: MINK mean inhibition at 1 uM [Nanosyn]
RECORDED_ENDPOINT: inhibition (%)
Dear colleague, please return just the value in %, with no unit written.

| SMILES_INPUT | inhibition [%] |
| --- | --- |
| Cc1nnc(-c2cccc(-c3ccc(C(=O)NCC4CC4)cc3)c2)o1 | 14.7 |
| COc1cc(Nc2ncc(-c3ccccc3)o2)cc(OC)c1 | 19.5 |
| N#Cc1cccc(Nc2ncc(-c3ccccc3)o2)c1 | 19.2 |
| COc1ccc(Nc2ncc(-c3ccccc3)o2)cc1OC | 35.5 |

// inhibition (Misshapen-like kinase 1 (Homo sapiens) (UniProt Q8N4C8)) for COc1cc(N2CCN(C(C)C)CC2)ccc1Nc1nc(Nc2cccc3ncccc23)c2cc[nH]c2n1 = 6.73

Here CS(=O)(=O)CCNCc1ccc(-c2ccc3ncnc(Nc4ccc(OCc5ccccc5)cc4)c3c2)o1 was tested on Misshapen-like kinase 1 (Homo sapiens) (UniProt Q8N4C8), and its inhibition came to 5.67

###

Entries and their inhibition values follow.
target: Tyrosine-protein kinase Yes (Homo sapiens); details: at 0.1 µM;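 further: mean inhibition of YES, from the GSK PKIS dataset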

Answered examples (3):
| COMPOUND | inhibition |
| --- | --- |
| Cc1ccc(-c2cc3c(NC(=O)C4CC4)ncnc3o2)cc1 | 6% |
| CC1=C(C(=O)Nc2ccc3[nH]nc(C)c3c2)C(c2ccc(C(F)(F)F)cc2)CC(=O)N1 (centres undefined) | 2.7% |
| COc1ccc(Nc2ncc(-c3ccccc3)o2)cc1OC | 7% |

inhibition reading for COc1cccc(-n2ncc3c(N/N=C/c4ccc(C(=O)NCCN(C)C)cc4)ncnc32)c1 : 58.5%

###

Measured inhibition accompanies every entry in the list below.
biological target: Ribosomal protein S6 kinase alpha-2 (Homo sapiens) (UniProt Q15349); conditions: at 0.1 µM;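 further: reported value is the mean percent inhibition of RSK3, from the GSK PKIS screening panel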
Sequence (Q15349 whole entry): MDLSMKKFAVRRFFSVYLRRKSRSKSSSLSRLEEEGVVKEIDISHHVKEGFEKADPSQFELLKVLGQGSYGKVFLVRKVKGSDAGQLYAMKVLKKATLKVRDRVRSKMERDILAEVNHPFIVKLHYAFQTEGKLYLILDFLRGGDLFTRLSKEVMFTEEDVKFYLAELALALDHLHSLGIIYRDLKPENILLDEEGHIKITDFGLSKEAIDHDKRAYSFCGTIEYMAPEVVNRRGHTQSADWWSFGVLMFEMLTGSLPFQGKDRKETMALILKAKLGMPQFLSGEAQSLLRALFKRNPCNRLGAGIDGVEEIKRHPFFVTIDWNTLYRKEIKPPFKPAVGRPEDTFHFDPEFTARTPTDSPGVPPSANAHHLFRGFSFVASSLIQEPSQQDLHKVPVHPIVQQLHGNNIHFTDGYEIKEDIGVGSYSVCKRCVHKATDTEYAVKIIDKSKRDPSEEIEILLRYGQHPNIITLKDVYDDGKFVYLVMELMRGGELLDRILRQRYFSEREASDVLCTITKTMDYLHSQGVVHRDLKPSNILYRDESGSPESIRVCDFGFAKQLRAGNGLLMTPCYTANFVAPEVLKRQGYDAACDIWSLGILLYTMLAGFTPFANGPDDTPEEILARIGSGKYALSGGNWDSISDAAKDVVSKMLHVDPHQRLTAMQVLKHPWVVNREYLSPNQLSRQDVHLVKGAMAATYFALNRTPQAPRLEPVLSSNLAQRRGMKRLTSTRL
Respond numerically; units are % and should not be typed.

The reported inhibition of the molecule COc1ccc(-c2nn3ncccc3c2-c2ccnc(Nc3ccc(F)c(F)c3)n2)cc1 was 2.96

// inhibition lookup, molecule = CC1=C(C(=O)Nc2ccc3[nH]ncc3c2)C(c2ccc(F)cc2)N=C(c2ccc(C(F)(F)F)nc2)N1 (configuration not stated) , result: 1.05
